Organism: Mus musculus
Test: Antihyperglycemic activity against C57BL/KsBom db/db type 2 diabetic mouse model assessed as decrease in postprandial blood glucose level on day 3 by OGTT relative to control
Format: functional
Design: concentration or dose not given beside the values
Reported Metric: Activity (%)
Give bare numbers, in %.

{"columns": ["Compound", "Reported Metric", "Observed Result"],
 "data": [
  ["Cc1ccc(S(=O)(=O)NC(=O)NN2CC3CCCC3C2)cc1 (stereo not drawn) [GLICLAZIDE]", "Activity", 17.4]
]}

Please look at the items below and tell me Activity for each one, in order.
1. COc1ccc(Cl)cc1C(=O)NCCc1ccc(S(=O)(=O)NC(=O)NC2CCCCC2)cc1 [GLYBURIDE]
2. c1ccc2c(c1)ccc1oc(-c3ccc(OCCN4CCCCC4)cc3)nc12
3. CN(C)CCCOc1ccc(-c2nc3c(ccc4ccccc43)o2)cc1
4. CCN(CC)CCCOc1ccc(-c2nc3c(ccc4ccccc43)o2)cc1
5. CCCCN(C)CCOc1ccc(-c2nc3c(ccc4ccccc43)o2)cc1
6. CN(C)C(=N)NC(=N)N

Key:
1: 13.6; 2: 10.4; 3: 16.7; 4: 10.8; 5: 22.3; 6: 11.2

Exercise: Look up Activity for this compound: CN(C)CCOc1ccc(-c2nc3c(ccc4ccccc43)o2)cc1
Key: 18.9
